These measurements were taken from PubChem BioAssay.

# Test system: Fibrinogen (Alexa647-labelled)
# protocol.notes: Alexa647-fibrinogen binding to printed small molecules – biochemical, small-molecule microarray, 635/667 nm fluorescence, artefact control for SMM control-protein annotation, profiling panel (AID 1131);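 note: z-score merges 667 nm fluorescence with per-spot signal-to-noise over triplicate slides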
# condition.notes: fibrinogen-A647 binding fluorescence, higher = more signal
In this section, each of the molecules is paired with its reported composite z-score.

Solved entries (count: 5):
| molecule | composite z-score |
| --- | --- |
| O=C1NC(=O)C2C1C=CC(C(O)c1ccc(-c3ccccc3)s1)N2Nc1ccc(Cl)cc1Cl (stereo not drawn) | 0.934 |
| OCC1C=C(/C=C/c2ccccc2)CN1Cc1ccccc1Br (stereo not drawn) | 0.891 |
| COCCOC(=O)N1C(=O)[C@@]2(c3cc(C#CC4=CCCCC4)ccc31)[C@H](c1ccc(OCCO)cc1)N1[C@H](c3ccccc3)[C@H](c3ccccc3)OC(=O)[C@H]1[C@@H]2C(=O)N1CCc2cc(OC)c(OC)cc2C1 | 0.874 |
| CC(=O)NCCCC[C@@H]1NC(=O)[C@H]2C[C@@H](C(=O)NCCCCCNC(=O)CS)[C@@H](c3ccc(O)cc3)N2C1=O | -0.355 |
| C=CCN1Cc2ccccc2[C@@H]2OC(c3ccc(OCCCO)cc3)=N[C@]2(CCS(=O)(=O)c2ccccc2)C1=O | 0.811 |

// query Item under review: `COCCCNC(=O)[C@@H]1c2ccccc2C(=O)N(Cc2ccccc2OC)[C@H]1c1ccc(CO)cc1` . Reported composite z-score?
// result -0.444

// query Reported composite z-score, molecule `O=C1[C@H]2C=C(Br)[C@H](C[C@@H]2OCCCCCCO)[C@@]12CO2` : ____
// result -1.94

// query Which composite z-score is reported for this molecule? `C=CC[C@]12N=C(c3ccc(OCCCO)cc3)O[C@H]1c1ccccc1N(CCS(=O)(=O)c1ccccc1)C2=O`
// result 0.971
